tested on: MCF7 breast; assay: NCI tumour cell line growth inhibition, 48 h
Here, each record is paired with measured TGI data.
assay_readout: TGI (µM)

[[record]]
compound = "CC1=CC[C@@H]2[C@@H](CC[C@@]2(C)O)C(C)(C)[C@H]1CC[C@@H]1[C@@]2(C)CC[C@@H](O)C(C)(C)O[C@@H]2CC[C@]1(C)O"
output_unit = "µM"
readout_qualifier = ">"
value_reported = 100

[[record]]
compound = "Nc1c(C(=O)c2ccc(Cl)cc2)[nH]c(Nc2ccc(Cl)cc2)c1C(=S)Nc1ccccc1"
output_unit = "µM"
readout_qualifier = "="
value_reported = 21.6

[[record]]
compound = "O=C1CC(C(O)C(O)C(O)CO)CC(=O)N1 (stereo not given)"
output_unit = "µM"
readout_qualifier = ">"
value_reported = 100

[[record]]
compound = "COc1cc(/C=C/C(=O)c2ccc(F)cc2)ccc1OCCCCOc1cc2c(cc1OC)C(=O)N1CCCC1C=N2 (stereo not given)"
output_unit = "µM"
readout_qualifier = "="
value_reported = 6.12

[[record]]
compound = "O=[N+]([O-])c1ccc(CSc2c3ccccc3nc3ccccc23)cc1"
output_unit = "µM"
readout_qualifier = ">"
value_reported = 100


====

tested on: RXF-631 renal; assay: NCI tumour cell line growth inhibition, 48 h
assay_readout: TGI (µM)

[[record]]
compound = "CC(C)(C)c1cc(O)c2c(c1O)C(=O)CCC2"
readout_qualifier = ">"
value_reported = 100

[[record]]
compound = "NC(N)=NS(=O)(=O)c1ccc(NC(=O)c2cccn3c(=O)c4ccccc4nc23)cc1"
readout_qualifier = ">"
value_reported = 100

[[record]]
compound = "N#CC1=C(c2ccccc2)NN(Cc2ccccc2)C(c2ccc(Cl)cc2)CC1=O (stereo not given)"
readout_qualifier = "="
value_reported = 85.3

[[record]]
compound = "COC(=O)c1ccc(CS(=O)(=O)c2ccccc2)cc1"
readout_qualifier = ">"
value_reported = 100

[[record]]
compound = "CCCCCCCCCCCCCCCCSS(C)(=O)=O"
readout_qualifier = "="
value_reported = 35.6

[[record]]
compound = "CCCCN1C(=O)C2c3[nH]c4ccccc4c3C3CCCCC3C2C1=O (mixture of isomers)"
readout_qualifier = "="
value_reported = 36.4

[[record]]
compound = "COC(=O)C12OCC34C(CC5C(C)C6=CC(=O)OC6=CC5(C)C3C(O)C1O)OC(=O)C(OC(C)=O)C24 (stereo not given)"
readout_qualifier = "="
value_reported = 33.9

[[record]]
compound = "CN(C)C=O.CN(C)C=O.CN1C(C(=O)Nc2ccccn2)=C([O-])c2ccccc2S1(=O)=O.CN1C(C(=O)Nc2ccccn2)=C([O-])c2ccccc2S1(=O)=O.[Cu+2]"
readout_qualifier = ">"
value_reported = 100

[[record]]
compound = "Cc1ccc2oc(=O)cc(CC(=O)O)c2c1"
readout_qualifier = ">"
value_reported = 100

[[record]]
compound = "C[C@]12CC[C@H](OC(=O)Cc3ccc(N(CCCl)CCCl)cc3)CC1CC[C@@H]1C2CC[C@]2(C)NC(=O)CCC12 (stereo not given in full)"
readout_qualifier = "="
value_reported = 34.1


====

tested on: OVCAR-8 ovarian; test: NCI tumour cell line growth inhibition, 48 h; in the data active = GI50 below about 0.43 µM; inactive = the rest
Classes used: y = active, n = inactive

[[record]]
compound = "CS(=O)(=O)c1nccc(-c2c(-c3cccc(OCc4ccccc4)c3)nc3sccn23)n1"
class_label = "n"

[[record]]
compound = "Oc1ccccc1/C=N/Nc1nc2ccccc2s1"
class_label = "n"

[[record]]
compound = "CCN(CC)c1ccc(CNc2cc(C)nc3ccc(OC)cc23)cc1"
class_label = "n"

[[record]]
compound = "N=C(N)c1ccc(CS(=O)(=O)F)cc1"
class_label = "n"

[[record]]
compound = "OCCNC(=S)Nc1ccc(-c2nc(N3C[C@H]4CC[C@@H](C3)O4)c3cccn3n2)cc1"
class_label = "y"

[[record]]
compound = "COc1ccc(/C=C(/C(=O)N2CCN(c3ccc(C)cc3)CC2)c2cc(OC)c(OC)c(OC)c2)cc1N"
class_label = "y"

[[record]]
compound = "O=C1C2=C(C(=O)c3c(O)ccc(O)c31)N(c1cccnc1)Cc1ccccc1O2"
class_label = "n"

[[record]]
compound = "Cc1cc(C)nc(NS(=O)(=O)c2ccc(Nc3nc4nc(NCc5ccccc5)nc(-c5ccc(O)cc5)c4c(=O)[nH]3)cc2)n1"
class_label = "n"

[[record]]
compound = "CN(C)c1ccc(/C=N/NC(=O)CSc2nc3sc4c(c3c(=O)n2-c2ccccc2)CCCCC4)cc1"
class_label = "n"

[[record]]
compound = "[O-]c1ccccc1[C-]=Nc1ccccc1O.[O-]c1ccccc1[C-]=Nc1ccccc1O.[O]=[U]=[O]"
class_label = "n"

[[record]]
compound = "CCCCCCCC(=O)SCC/C=C/[C@@H]1CC(=O)NCc2cccc(n2)C2=N[C@@](C)(CS2)C(=O)N[C@@H](C(C)C)C(=O)O1"
class_label = "y"

[[record]]
compound = "O=c1[nH]ccc2nc(N3CCC(O)CC3)nc(Nc3ccc(N4CCOCC4)cc3)c12"
class_label = "n"

[[record]]
compound = "Cc1c(C)n(CC(O)CNC2CCCCC2C)c2ccccc12 (centres undefined)"
class_label = "n"

[[record]]
compound = "C=C(c1ccc(OC)c(/C=C/C(=O)c2cc(OC)c(OC)c(OC)c2)c1)c1cc(OC)c(OC)c(OC)c1"
class_label = "n"


====

test system: HCT-116 colon; experiment: NCI tumour cell line growth inhibition, 48 h
assay_readout: TGI (µM)

[[record]]
compound = "C=C1CC(COc2ccc3c(C)c(Cl)c(=O)oc3c2)(c2ccccc2)OC1=O (stereo not drawn)"
output_unit = "µM"
readout_qualifier = "="
value_reported = 2.42

[[record]]
compound = "C=C(c1ccccc1)[C@@]1(O)CCCC[C@H]1NC(c1ccccc1)c1ccccc1"
output_unit = "µM"
readout_qualifier = "="
value_reported = 20.5

[[record]]
compound = "C=C(c1ccc(OC)c(/C=C/C(=O)c2cc(OC)c(OC)c(OC)c2)c1)c1cc(OC)c(OC)c(OC)c1"
output_unit = "µM"
readout_qualifier = "="
value_reported = 1.9

[[record]]
compound = "COc1ccc2c(c1)OCC1=C2Oc2ccccc2C1"
output_unit = "µM"
readout_qualifier = ">"
value_reported = 100

[[record]]
compound = "CN(C)C=O.CN(C)C=O.CN1C(C(=O)Nc2ccccn2)=C([O-])c2ccccc2S1(=O)=O.CN1C(C(=O)Nc2ccccn2)=C([O-])c2ccccc2S1(=O)=O.[Cu+2]"
output_unit = "µM"
readout_qualifier = ">"
value_reported = 100

[[record]]
compound = "O=S(=O)(Nc1nc2ccccc2nc1Nc1cccc2ccccc12)c1ccccc1"
output_unit = "µM"
readout_qualifier = ">"
value_reported = 100

[[record]]
compound = "C[C@]12CC[C@H](OC(=O)Cc3ccc(N(CCCl)CCCl)cc3)CC1CC[C@@H]1C2CC[C@]2(C)NC(=O)CCC12 (stereo partly drawn)"
output_unit = "µM"
readout_qualifier = "="
value_reported = 18.5

[[record]]
compound = "O=C1CC2(CCN(CC3COc4ccccc4O3)CC2)C(=O)N1N1CCCCCC1 (stereo not drawn)"
output_unit = "µM"
readout_qualifier = ">"
value_reported = 100

[[record]]
compound = "Nc1nc(N)c2c(CCc3ccc(C(=O)N[C@@H](CCC(=O)O)C(=O)O)cc3)ccnc2n1"
output_unit = "µM"
readout_qualifier = ">"
value_reported = 100

[[record]]
compound = "CC(C)C(C)C(O)C(O)C(C)C1CCC2C3COC(=O)C4CC(O)C(O)CC4(C)C3CCC12C (stereo not drawn)"
output_unit = "µM"
readout_qualifier = ">"
value_reported = 100

[[record]]
compound = "CC[C@@]1(O)C(=O)OCc2c1cc1n(c2=O)Cc2cc3c([N+](=O)[O-])c(O)ccc3nc2-1"
output_unit = "µM"
readout_qualifier = "="
value_reported = 7.11

[[record]]
compound = "COc1ccc2c(c1)C(=O)c1c-2n(CCCCl)c(=O)c2cc([N+](=O)[O-])ccc12"
output_unit = "µM"
readout_qualifier = "="
value_reported = 0.737

[[record]]
compound = "Cn1cc(S(=O)(=O)NC(=O)Nc2ccc(Cl)cc2)c(=O)c2ccc(Cl)cc21"
output_unit = "µM"
readout_qualifier = ">"
value_reported = 100

[[record]]
compound = "Cc1ccc(C(=O)Nc2ccc(CN3CCN(C)CC3)c(C(F)(F)F)c2)cc1C#Cc1cnc(N)c2ccc(C#N)cc12"
output_unit = "µM"
readout_qualifier = "="
value_reported = 7.3

[[record]]
compound = "Clc1ccc(/C=c2\\nc(-c3ccccc3)n3c2nc2ccccc23)cc1"
output_unit = "µM"
readout_qualifier = ">"
value_reported = 100

[[record]]
compound = "CC1(C)CCc2cc3c(cc2O1)OC(C)(C)CC3=O"
output_unit = "µM"
readout_qualifier = ">"
value_reported = 100

[[record]]
compound = "CCOC(=O)CC[C@H](NC(=O)c1ccc(CNc2nc3cc(C(F)(F)F)ccc3nc2C(=O)OCC)cc1)C(=O)OCC"
output_unit = "µM"
readout_qualifier = ">"
value_reported = 100

[[record]]
compound = "OCCNC(=S)Nc1ccc(-c2nc(N3C[C@H]4CC[C@@H](C3)O4)c3cccn3n2)cc1"
output_unit = "µM"
readout_qualifier = "="
value_reported = 21.7

